# protocolDetails: Laboratory stability in halogen demand-free water (DFW), iodometric titration
# Type: physicochemical
# assayContext: demand-free water, pH 7
readoutLabel: remaining at 336 h (%)

{"molecule": "CC1(C)C(=O)N(Cl)C(C)(C)N1Br", "unitsOfMeasure": "%", "remaining at 336 h": 88.2}
{"molecule": "CC1(C)C(=O)N(Cl)C(C)(C)N1Cl", "unitsOfMeasure": "%", "remaining at 336 h": 95}

----------
# protocolDetails: Prevention of the growth of algae in water by Compound 1
# Type: cell-based
# assayContext: algal aquarium, pH 6.8; start 6.14 mg per liter, day 12; read-out: Percent Total Potential Positive Chlorine Remaining
readoutLabel: remaining at 288 h (%)
Give a bare numeral; the unit % is implied.

Task: Fill blank: measured remaining at 288 h of the compound `CC1(C)C(=O)N(Cl)C(C)(C)N1Cl` is ____.
Output: 45.6

----------
# protocolDetails: Stability in synthetic halogen demand water (SDW)
# Format: physicochemical
# assayContext: synthetic halogen demand water; SDW, 4° C., pH 9.5, 24.0 hrs; read-out: Percent Halogen Remaining
readoutLabel: remaining at 24 h (%)

[A] CC1(C)NC(=O)C(C)(C)N1Cl [Compound 3]
[B] CC1(C)C(=O)N(Cl)C(C)(C)N1Br [Compound 5]
Task: API: POST /compare with A and B ; response names the item with higher remaining at 24 h. // caller expects the label of the chosen entry
Output: A

----------
# protocolDetails: Laboratory stability in halogen demand-free water (DFW), iodometric titration
# Assay type: physicochemical
# assayContext: demand-free water, pH 9.5
readoutLabel: remaining at 119.28 h (%)
Give just the number in %; leave the unit off.

Task: # input compound: `CC1(C)C(=O)N(Cl)C(C)(C)N1Br` ; wanted: its remaining at 119.28 h
Output: 89.5

----------
# protocolDetails: Laboratory stability in halogen demand-free water (DFW), iodometric titration
# Format: physicochemical
# assayContext: demand-free water, pH 7
readoutLabel: remaining at 168 h (%)

{"compound": "CC1(C)C(=O)N(Cl)C(C)(C)N1Cl [Compound 1]", "unitsOfMeasure": "%", "remaining at 168 h": 97.1}
{"compound": "CC1(C)C(=O)N(Cl)C(C)(C)N1Br [Compound 5]", "unitsOfMeasure": "%", "remaining at 168 h": 91.7}

----------
# protocolDetails: Laboratory stability in halogen demand-free water (DFW), iodometric titration
# Type: physicochemical
# assayContext: demand-free water, pH 4.5
readoutLabel: remaining at 336 h (%)
Could you give me the number in %? Just the number is fine.

Task: Which remaining at 336 h reading was recorded for the molecule `CC1(C)C(=O)N(Cl)C(C)(C)N1Cl` ?
Output: 55.5

----------
# protocolDetails: Prevention of the growth of algae in water by Compound 1
# Type: cell-based
# assayContext: algal aquarium, pH 6.8; start 6.14 mg per liter, day 4; read-out: Percent Total Potential Positive Chlorine Remaining
# Protocol: Two 10 gallon aquariums were each filled with 35 liters of Bristol's solution at pH 6.8 as described in example 16. […] Then 5 milliliters of an inoculum containing the algae Oscillatoria lutea, Anabaena cylindrica, and Chlorella pyrenoidosa with an absorbance of 0.14 at 750 nanometers was added to each aquarium. […] Both aquariums were sampled periodically such that the absorption at 750 nanometers could be measured with a Milton Roy Spectronic 301 spectrophotometer. […]
readoutLabel: remaining at 96 h (%)
The answer is to be given in %; state only the numeric part.

Task: Requested field: remaining at 96 h. Item: CC1(C)C(=O)N(Cl)C(C)(C)N1Cl [Compound 1]
Output: 53.4
